B1: EEHEE_rd4_0647 (parent)
chain: MQVTWGNVTVTFSNPEEAKKYAEKVARKLGGQVELHNGQFRIK

- Variants of: B1
- Test Protocol: folding stability dG (cDNA display proteolysis); higher = more stable
- Condition Summary: PBS, room temperature
In this section we review reported folding stability dG values for a set of variants.
Measured Attribute: folding stability dG (kcal/mol)

* G6H | 2.48
* F12Q | 0.017
* K24C | 3.81
* K19M | 2.66
* K19T | 1.62
* F40A | 0.89
* Q32L | 2.74
* I42M | 0.646
* G30N | 2.63
* E17T | 2.74
* V3Y | 0.842
